Please provide measured growth inhibition for the entries that follow.
- Method: NCI Yeast Anticancer Drug Screen. Data for the bub3 strain (AID 167)
- Assay Context: S. cerevisiae bub3 mutant strain, at 5.0 µM (retest, dose inferred, filed as 0.5), active compounds read high
- Method: Growth inhibition of yeast strains with defined genetic alterations is measured as a screen for potential anti-cancer activity. Selected strains with alterations in DNA damage repair or cell cycle control were exposed to compounds and growth inhibition was measured relative to vehicle treated controls. The strain used in this assay is bub3
The panel holds about 79,000 compounds, 15% with a hit somewhere; the sample as a whole holds those more often. Activity calls are given as the source filed them. Rule as the data show it: active = growth inhibition above about 70%; inactive = the rest.

Lab book: growth inhibition of `CC(=O)NNc1nc(C)c(C(=O)NNC(=O)C(=O)Nc2ccc(Cl)cc2Cl)s1` noted as 5% (inactive)

Input `Cc1c(C(=O)N(CCO)CCO)[n+](=O)c2ccccc2n1[O-]` . Output growth inhibition: 3% (inactive)

Memo: `O=[N+]([O-])c1ccc(NNS(=O)(=O)c2ccccc2)c([N+](=O)[O-])c1` , reported growth inhibition: 4% (inactive)

Reported growth inhibition of `O=C(N/C(=C\c1ccc2c(c1)OCO2)c1nc2ccccc2s1)c1ccccc1` : 19% (inactive)

// field: growth inhibition; key: `Clc1ccc(SSN2CCCCC2)cc1` ; value = -1% (inactive)

// growth inhibition lookup, molecule = `Clc1ccc(CN2COc3c(cc(Cl)c4cccnc34)C2)cc1` , result: -6% (inactive)

Record `COP(=O)(OC)/C(=C/c1cn(C(c2ccccc2)(c2ccccc2)c2ccccc2)cn1)NC=O` . Reported growth inhibition: 0% (inactive)

Value of growth inhibition reported for the molecule `CCOc1c(N=Nc2ccc(Cl)cc2)c(-c2ccccc2)nn1C(N)=S` is 1% (inactive)

Quick note, growth inhibition for `NSc1ccccn1` landed at 3% (inactive)

Quick note, growth inhibition for O=C(c1ccccc1)C1N=NCC1c1ccc([N+](=O)[O-])cc1 (stereo unspecified) landed at -5% (inactive)

Looking up `O=[N+]([O-])c1ccc(S(=O)(=O)N/N=C/C=C/c2ccccc2)cc1` , I see its growth inhibition listed as 6% (inactive)

Item: O=C(O)/C=C/CCC1SCC2NC(=O)NC21 (stereo unspecified) | growth inhibition: 97% (active)

get_value(item= `O=[N+]([O-])/C=C\c1csc2ccccc12` , readout=growth inhibition) returns 92% (active)

The measured growth inhibition associated with `Nc1ccc(S(=O)(=O)Nc2ccccc2)cc1` reads 37% (inactive)

Sample `COC(=O)/C(Br)=C(\Br)c1ccccc1` ; growth inhibition observed: 0% (inactive)

molecule `C=CCNC(=O)c1ccccc1C(=O)O` , growth inhibition observed: 4% (inactive)

`N#C/C(=C\C(Cl)=C/c1ccccc1)C(N)=S` yielded growth inhibition of 79% (active)

Documented growth inhibition of `COc1ccc(C(=O)Cn2c(C(C)=O)nc3ccccc32)cc1` : 31% (inactive)

The recorded growth inhibition for entry `CCCc1cc2c(cc1CS(=O)(=O)CC)OCO2` equals 23% (inactive)

Documented growth inhibition of `Cc1cc[c]([Sn]([Cl])([O][Sn]([Cl])([c]2ccc(C)cc2)[c]2ccc(C)cc2)[c]2ccc(C)cc2)cc1` : 16% (inactive)

Recorded growth inhibition (molecule `COc1ccc2nc3cc([N+](=O)[O-])ccc3c(NCCO)c2c1` ): -18% (inactive)

###

- Method: NCI Yeast Anticancer Drug Screen. Data for the bub3 strain (AID 167)
- Assay Context: S. cerevisiae bub3 mutant strain, at 50.0 µM, active compounds read high
- Procedure: Growth inhibition of yeast strains with defined genetic alterations is measured as a screen for potential anti-cancer activity. Selected strains with alterations in DNA damage repair or cell cycle control were exposed to compounds and growth inhibition was measured relative to vehicle treated controls. The strain used in this assay is bub3
This is part of a sample that, as a whole, favours compounds with a hit. Of some 79,000 tested, about 15% had one in any assay. Active and inactive are the calls of the source. Rule as the data show it: active = growth inhibition above about 70%; inactive = the rest.
Observation Type: growth inhibition

For this compound ( COC(=O)N1C2C=CC(=O)C(C=C2)N1C(=O)OC (centres undefined) ), measured growth inhibition is 60.6% (inactive)

growth inhibition reported for this compound CCCC1c2ccc(O)cc2CC1c1ccc(O)cc1 (centres undefined) : 98.7% (active)

Record summary for `CN(C)c1cc[c]([Sn]([c]2ccc(N(C)C)cc2)([c]2ccc(N(C)C)cc2)[c]2ccc(N(C)C)cc2)cc1` : reported growth inhibition = 49.4% (inactive)

Form field growth inhibition, entry N=C(N)SC1c2ccccc2-c2ccc(N)cc21 (centres undefined) : 97% (active)

Reported growth inhibition ( `CSc1nc(COC(=O)NC(C)C)c(COC(=O)NC(C)C)n1-c1ccccc1` ) = -12.7% (inactive)

Form: compound = `Nc1ccc2c(c1)CCc1ccccc1-2` ; growth inhibition = 81.5% (active)

Briefly, growth inhibition measured for `CCCCCCN(S(=O)(=O)c1ccc([N+](=O)[O-])cc1)S(=O)(=O)c1ccc([N+](=O)[O-])cc1` : 56.9% (inactive)

get_value(item= `C=C1C(=O)[C@]23C[C@H]1CC[C@H]2[C@@]12CO[C@@H](O)[C@@H]1C(C)(C)[C@@H](O)C[C@@H]2OC3=O` , readout=growth inhibition) returns -0.9% (inactive)

get_value(item= `O=C(OCc1ccccc1)c1ccccc1Cl` , readout=growth inhibition) returns 30.9% (inactive)

`CCC[CH2][Sn]([CH2]CCC)([O]C(=O)Cc1ccc(F)cc1)[O]C(=O)Cc1ccc(F)cc1` has a reported growth inhibition of 76% (active)

// field: growth inhibition; key: `NNc1ccc(Br)cc1` ; value = 91% (active)

# compound CCCCCCCCCCOC1C(C(O)CNCCCN(C)C)OC2OC3(CCCCC3)OC21 (centres undefined) ; its growth inhibition = 89% (active)

growth inhibition recorded for this compound, `Oc1ccccc1C1CCCCC1` , is 73.2% (active)

response.value for `S=c1[nH]c2ccc(Br)cc2c(=S)n1-c1ccccc1` (field: growth inhibition) = 89.4% (active)

Noted for `O=C(c1ccc(O)cc1)c1ccccc1O` : its growth inhibition reads 17.9% (inactive)

Please fill in: growth inhibition reported for `C[N+](C)(CCCCCCOc1c(Br)cc(Br)cc1Br)Cc1ccc(Br)o1` = 99.8% (active)

growth inhibition for `CCOC(=O)Cc1csc(/C=C/c2ccc(OC)c(OC)c2)n1` is -12.7% (inactive)

Entry under test: CC12OC1C(=O)c1ccccc1C2=O (centres undefined) . Its growth inhibition was 90.9% (active)

growth inhibition reading for `C[N+]1(C)C/C(=C\C=C\c2ccccc2)C(=O)/C(=C/C=C/c2ccccc2)C1` : 93.9% (active)

###

- Method: NCI Yeast Anticancer Drug Screen. Data for the sgs1 mgt1 strain (AID 161);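 also: 0% = growth of cultures given vehicle only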
- Assay Context: S. cerevisiae sgs1 mgt1 strain, at 50.0 µM, active compounds read high
This is part of a sample that, as a whole, favours compounds with a hit. Of some 79,000 tested, about 15% had one in any assay.
Assign class by growth inhibition: not lower than 60% means 1; lower than 60% means -1.

# input growth inhibition >= 60% for `CCCCCCCCCCCCCC1=NCC(C)(C)N1` ?
# output 1

# input Does `CC1(C)CC(=O)C(C=NC(=S)c2ccccc2)=C(O)C1` have a reported growth inhibition of at least 60%?
# output -1

# input Confirm if growth inhibition reported for the compound `O=C1Oc2ccccc2C(=O)/C1=C/N1C(=O)/C(=C/c2ccc([N+](=O)[O-])cc2)SC1=S` is 60% or above.
# output 1

# input Item `CCOC(=O)c1cc(C)c(O)c(C(=O)OCC)c1` with growth inhibition of 60% or above?
# output -1

# input Item O=C1C(Cl)C(c2cc(Br)cc(Br)c2O)N1n1cnc2ccccc2c1=O (configuration not stated) with growth inhibition of 60% or above?
# output 1

# input Determine whether this compound has growth inhibition no lower than 60%: `CCOC(=O)CCCCCN`
# output -1

###

- Method: NCI Yeast Anticancer Drug Screen. Data for the mlh1 rad18 strain (AID 175)
- Assay Context: S. cerevisiae mlh1 rad18 strain growth inhibition; at 5.0 µM (retest, dose inferred, filed as 0.5); active compounds read high
Compounds without any hit were thinned out: in the full panel of roughly 79,000, 15% have a hit.
Observation Type: growth inhibition (%)
Answer in %, number only, no unit symbol.

Looking up `Cn1cc(NC(=O)c2cc(NC(=O)CCCCCCC(=O)Nc3cc(C(=O)Nc4cc(C(=O)NCCC(=N)N)n(C)c4)n(C)c3)cn2C)cc1C(=O)NCCC(=N)N` , I see its growth inhibition listed as 90

Summary for this compound, `CC1=C(C)C(=O)C(CNCc2ccccc2)=[C-]C1=O.[Co].[c-]1[c-][c-][cH-][c-]1` : growth inhibition is 6

Kindly note the recorded growth inhibition for `O=C(O)c1cc(-c2ccc3c(c2)Nc2ccccc2S3)nc2ccc(F)cc12` , which is 18

Measured growth inhibition, `Fc1ccc(NC(=S)SCc2ccc(Cl)c(Cl)c2)cc1` : 0

Lookup result for `O=S(=O)(N/N=C/c1ccc(Cl)cc1Cl)c1ccccc1` ; measured growth inhibition: 8

For reference, reported growth inhibition for CC(=O)C(C(=O)CCSCCO)C(SCCO)c1ccc(Cl)c(Cl)c1 (stereo unspecified) stands at -3

Data point: CCN(CC)CCCC(C)Nc1cc(O)c2c(c1O)C(=O)c1ccccc1C2=O (stereo unspecified) ; growth inhibition = 94

Sure, the documented growth inhibition for `O=C1C(=O)C2CC3(CC1N2Cc1ccccc1)OCCO3` is 34

Form: compound = COC(=O)CC1C(=O)OCc2c1cc1n(c2=O)Cc2c-1nc1ccccc1c2OC (stereo unspecified) ; growth inhibition = 7

The compound listed as `Nc1ccccc1CC(c1c[nH]c2ccccc12)c1c[nH]c2ccccc12` shows growth inhibition equal to 4

growth inhibition measured on `COc1cc(CCN=Cc2cc(Cl)cc(Cl)c2O)c([N+](=O)[O-])cc1OC` = 64

The compound identified as `Oc1ccc(C2CCCCC2)c(O)c1` registered its growth inhibition at 2

Record summary for `CCCC(=O)c1ccc(OC)cc1` : reported growth inhibition = -1

# compound COC1C(N)C(OC2C(Oc3cccc4c(O)c5c(=O)oc6ccc(C)c7c(=O)oc(c34)c5c67)OC(C)C(O)C2(C)O)OC(C)C1O (stereo unspecified) ; its growth inhibition = 11

The recorded growth inhibition for `CCOC(=O)C(=C=C=C(c1ccccc1)c1ccccc1)C(=O)OCC` is -4

# compound `Cc1[nH]nc(C(=O)N(C)C)c1N=NN(C)C` ; its growth inhibition = -105

// sample `COc1ccc2c(c1OC)C1=C(C2=O)c2cc3c(cc2CCN1)OCO3` , its growth inhibition was 8

Noted for `CC(=O)Oc1ccc(/C=C/c2ccncc2)cc1` : its growth inhibition reads -157

Quick note, growth inhibition for CN(C)C1CCC2C3CC=C4CC(OC=O)CCC4(C)C3CCC21C (stereo unspecified) landed at -11

Form field growth inhibition, entry `COc1ccc(/C=C2\CN(C)C/C(=C\c3ccc(OC)c(OC)c3OC)C2=O)c(OC)c1OC` : -4

Notebook: `COc1ccccc1NC(=O)C1=C(C)NC(C)=C(C(=O)Nc2ccccc2OC)C1c1ccc(C2C(C(=O)Nc3ccccc3OC)=C(C)NC(C)=C2C(=O)Nc2ccccc2OC)cc1` , growth inhibition read as 41

// growth inhibition value for `CC(=O)c1c(O)c2ccc(Cl)cc2[nH]c1=O` : 72

Please fill in: growth inhibition reported for CCC(c1ccccc1)N1C(=O)c2ccccc2S1(=O)=O (stereo unspecified) = -3

Value of measured growth inhibition for the entry `CCOC(=O)c1c(Br)c(-c2ccc(Br)cc2)c(Br)n1C` : -8

// recorded growth inhibition for CCOC(=O)C(Cc1ccc(O)c(C=O)c1)NC(C)=O (stereo unspecified) : -7

Note to self: growth inhibition recorded for `CCn1c2ccccc2c(=O)c2c(OC)ccc(OC)c21` was -1
